- Tested on: Escherichia coli IAI1
- EXPERIMENT DESCRIPTION: fold change of Cadaverine concentration vs plate DMSO controls (fold change (ratio)); higher = more amine produced, active = hit call of the paper (significant change in both replicates, either direction);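 for the amine columns active = adjusted P below 0.05 in both replicates with a change the same way and a mean fold change under 0.8 or over 1.25; inactive = the rest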
- MEASUREMENT CONDITIONS: incubation time: 27 h, anaerobic, 37 °C
Possible outcomes: y (active), n (inactive)

COMPOUND	TARGET ENTITY	QUALITATIVE LABEL
CCn1cc(C(=O)O)c(=O)c2cc(F)c(N3CCN(C)CC3)cc21 [Pefloxacin] (20 µM)	Escherichia coli IAI1	y
CC(=O)CC(c1ccc([N+](=O)[O-])cc1)c1c(O)c2ccccc2oc1=O (configuration not stated) [Acenocoumarol] (20 µM)	Escherichia coli IAI1	n
OC[C@H]1O[C@H](O[C@H]2[C@H](O)[C@@H](O)[C@H](O)O[C@@H]2CO)[C@H](O)[C@@H](O)[C@@H]1O [Maltose] (50 µM)	Escherichia coli IAI1	n
CC(=O)Nc1ccc(O)cc1 [Acetaminophen] (20 µM)	Escherichia coli IAI1	n
C/C(=C\C(=O)OCCCCCCCCC(=O)O)C[C@@H]1OC[C@H](C[C@@H]2O[C@H]2[C@@H](C)[C@H](C)O)[C@@H](O)[C@H]1O [Mupirocin] (20 µM)	Escherichia coli IAI1	y
CCCCOc1cc(C(=O)NCCN(CC)CC)c2ccccc2n1 [Dibucaine] (20 µM)	Escherichia coli IAI1	n
CCCCC1=NC2(CCCC2)C(=O)N1Cc1ccc(-c2ccccc2-c2nnn[nH]2)cc1 [Irbesartan] (20 µM)	Escherichia coli IAI1	n
